measurementLabel: melting point

Some compounds with recorded melting point:
[
  {
    "compound": "N#Cc1cccc(Oc2cc(CC(=O)Nc3ccc(S(N)(=O)=O)cc3)cc3ccoc23)c1 [Compound I-144]",
    "endpointResult": "196.4 to 198.7 °C"
  },
  {
    "compound": "NS(=O)(=O)c1ccc(NC(=O)Cc2ccc(Cl)c(Oc3cc(Cl)cc(Cl)c3Cl)c2F)cc1 [Compound I-10]",
    "endpointResult": "247 to 249.9 °C"
  },
  {
    "compound": "CCc1ccc(CC(=O)Nc2ccccc2Cl)cc1Oc1cc(Br)cc(F)c1Cl [Compound I-41]",
    "endpointResult": "146.6 to 147.2 °C"
  },
  {
    "compound": "Cc1ccc(CC(=O)Nc2ccc(S(N)(=O)=O)cc2)cc1Oc1cc(Cl)ccc1Br [Compound I-30]",
    "endpointResult": "236.9 to 239.3 °C"
  },
  {
    "compound": "Cc1ccc(CC(=O)Nc2ccc(S(N)(=O)=O)cc2Cl)c(F)c1Oc1cc(Cl)cc(C#N)c1 [Compound I-83]",
    "endpointResult": "228.9 to 230.6 °C"
  },
  {
    "compound": "N#Cc1cc(Cl)cc(Oc2cc(CC(=O)Nc3ccc(S(N)(=O)=O)cc3)ccc2Cl)c1 [Compound I-1]",
    "endpointResult": "210.5 to 214 °C"
  },
  {
    "compound": "Cc1cc(S(N)(=O)=O)ccc1NC(=O)Cc1ccc(Cl)c(Oc2cc(C#N)cc(C#CCO)c2)c1F [Compound I-186]",
    "endpointResult": "170.1 to 173.2 °C"
  }
]

Q: Can you look up the measured melting point of Cc1cc(CC(=O)Nc2ccc(S(N)(=O)=O)cc2)cc(C(=O)c2ccccc2Cl)c1 [Compound I-263] for me?
Ans: 165 to 167 °C
